Test system: LPS Induced IL23p19 in THP-1 Cells
assay_overview: LPS Induced IL23p19 in THP-1 Cells (with IFNγ Primed) Assay
Type: cell-based, human
measurement_setup: Homo sapiens; Table 1; THP-1 cells primed with IFNγ 50 ng/mL, LPS 1 ug/mL, 18 hours, 10 pt; read-out: IL23-p19 ELISA, THP1-IFNγ, LPS, 10 pt EC50
pEC50: −log10 of the molar value.
Could you label it true (1) if measured pEC50 is 7 or higher, and false (0) otherwise?

Prompt: Does pEC50 meet or surpass 7 for CCO[C@H]1CC[C@H](n2cc(NC(=O)c3coc(-c4cn[nH]c4)n3)c(-c3nc(C(F)(F)F)ccc3F)n2)CC1 [Compound I-31] ?
Response: false (0)

Prompt: Does pEC50 meet or surpass 7 for O=C(Nc1cn([C@H]2C[C@@H](O)C2)nc1-c1cnccn1)c1coc(-c2cn[nH]c2)n1 [Compound I-38] ?
Response: true (1)

Prompt: Does pEC50 meet or surpass 7 for CCO[C@H]1CC[C@H](n2cc(NC(=O)c3coc(-c4cn[nH]c4)n3)c(-c3cnccn3)n2)CC1 [Compound I-1] ?
Response: true (1)

Prompt: Does pEC50 meet or surpass 7 for O=C(Nc1cn([C@H]2CC[C@H](O)CC2)nc1-c1cnccn1)c1coc(-c2cn[nH]c2)n1 [Compound I-27] ?
Response: true (1)

Prompt: Does pEC50 meet or surpass 7 for CCO[C@H]1CC[C@H](n2cc(NC(=O)c3coc(-c4cn[nH]c4)n3)c(-c3nc(F)c(F)cc3F)n2)CC1 [Compound I-28] ?
Response: false (0)

Prompt: Does pEC50 meet or surpass 7 for COCCOCCn1cc(NC(=O)c2coc(-c3cn[nH]c3)n2)c(-c2ccccn2)n1 [Compound I-24] ?
Response: false (0)

Prompt: Does pEC50 meet or surpass 7 for O=C(Nc1cn([C@H]2C[C@@H](N3CCOCC3)C2)nc1-c1cnccn1)c1coc(-c2cn[nH]c2)n1 [Compound I-34] ?
Response: true (1)

Prompt: Does pEC50 meet or surpass 7 for CCO[C@H]1CC[C@H](n2cc(NC(=O)c3coc(-c4cn[nH]c4)n3)c(-c3cc(F)cc(F)n3)n2)CC1 [Compound I-29] ?
Response: false (0)

Prompt: Does pEC50 meet or surpass 7 for O=C(Nc1cn(C2CCC(N3CCOCC3)CC2)nc1-c1cnccn1)c1coc(-c2cn[nH]c2)n1 (stereo not shown) [Compound I-30] ?
Response: true (1)

Prompt: Does pEC50 meet or surpass 7 for O=C(Nc1cn([C@H]2C[C@H](N3CCOCC3)C2)nc1-c1cnccn1)c1coc(-c2cn[nH]c2)n1 [Compound I-33] ?
Response: true (1)

----------
Test system: LPS Induced IL23p19 in THP-1 Cells
assay_overview: LPS Induced IL23p19 in THP-1 Cells (with IFNγ Primed) Assay
Assay type: cell-based, human
measurement_setup: Table 3; THP-1 cells primed with IFNγ 50 ng/mL, LPS 1 ug/mL, 18 hours, 10 pt; read-out: IL23-p19 ELISA, THP1-IFNγ, LPS, 10 pt EC50
recorded_metric: pEC50
Keep it numeric: pEC50 is minus log10 of the concentration in mol/L.

Prompt: In one line, give reported pEC50 of the entry "CCOCCn1cc(NC(=O)c2coc(-c3cn[nH]c3)n2)c(-c2ccccn2)n1" .
Response: 6.61

Prompt: In one line, give reported pEC50 of the entry "O=C(Nc1cn(C2CCC2)nc1-c1ccccn1)c1coc(-c2cn[nH]c2)n1" .
Response: 6.57

Prompt: In one line, give reported pEC50 of the entry "O=C(Nc1cn(CCOCC(F)F)nc1-c1ccccn1)c1coc(-c2cn[nH]c2)n1" .
Response: 6.40

Prompt: In one line, give reported pEC50 of the entry "O=C(Nc1cn(C2CCOCC2)nc1-c1ccccn1)c1coc(-c2cn[nH]c2)n1" .
Response: 7.40

Prompt: In one line, give reported pEC50 of the entry "Cn1cc(NC(=O)c2coc(-c3cnn(CC4CC4)c3)n2)c(-c2ccccn2)n1" .
Response: 4.69

Prompt: In one line, give reported pEC50 of the entry "CCO[C@H]1C[C@@H](n2cc(NC(=O)c3coc(-c4cn[nH]c4)n3)c(-c3ccccn3)n2)C1" .
Response: 7.36
